Data credit: patent US20220023281A1

biological target: AM2 receptor-expressing cells (1321N1 cells transfected with CALCRL+RAMP3) (Homo sapiens, UniProt O60896+Q16602); construct: host or cells: 1321N1 cells; assay: AM2 receptor inhibition, LANCE cAMP agonist-antagonist competition assay (AM2 D2 protocol); assay type: cell-based; details: inhibition of AM induced cAMP in 1321N1 cells expressing CALCRL+RAMP3; read-out: AM2 D2 protocol: pIC50 (converted)
Sequence (Q16602 23-461): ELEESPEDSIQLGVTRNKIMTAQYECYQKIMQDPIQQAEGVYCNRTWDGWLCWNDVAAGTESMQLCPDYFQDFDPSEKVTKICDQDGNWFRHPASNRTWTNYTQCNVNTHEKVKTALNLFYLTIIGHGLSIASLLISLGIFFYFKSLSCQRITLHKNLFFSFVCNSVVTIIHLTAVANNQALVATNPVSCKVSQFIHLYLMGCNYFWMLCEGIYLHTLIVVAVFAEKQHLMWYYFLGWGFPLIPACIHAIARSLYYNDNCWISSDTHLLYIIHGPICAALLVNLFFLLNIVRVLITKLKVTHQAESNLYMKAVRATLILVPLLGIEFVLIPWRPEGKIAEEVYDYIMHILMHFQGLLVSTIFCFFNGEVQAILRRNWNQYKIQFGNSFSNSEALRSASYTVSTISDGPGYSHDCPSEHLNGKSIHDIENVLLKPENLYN
Sequence (O60896 24-148): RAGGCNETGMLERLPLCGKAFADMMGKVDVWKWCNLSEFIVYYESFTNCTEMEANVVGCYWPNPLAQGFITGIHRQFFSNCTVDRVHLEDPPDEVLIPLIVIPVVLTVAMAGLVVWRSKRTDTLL
MEASUREMENT LABEL: IC50 (nM)

COMPOUND | UNIT SYMBOL | IC50
CC(C)(C)C(=O)N(CC(=O)Nc1ccc2c(c1)C[C@@]1(C2)C(=O)Nc2ncccc21)[C@@H]1CCCNC1 | nM | 741
O=C(CN(C(=O)C1CCCC1)[C@H]1CCCNC1)Nc1ccc2c(c1)C[C@@]1(C2)C(=O)Nc2ncccc21 | nM | 170
CCC1(C(=O)N(CC(=O)Nc2ccc3c(c2)C[C@@]2(C3)C(=O)Nc3ncccc32)[C@H]2CCCNC2)CCN(C(C)=O)CC1 | nM | 14.1
C[C@H]1CC[C@H](N(CC(=O)Nc2ccc3c(c2)C[C@@]2(C3)C(=O)Nc3ncccc32)C(=O)C(C)(C)C)CN1 (relative stereo) | nM | 186
CC1(C(=O)N(CC(=O)Nc2ccc3c(c2)C[C@@]2(C3)C(=O)Nc3ncccc32)[C@H]2CCCNC2)CCNCC1 | nM | 50.1

(I) CC(C)(F)C(=O)N(CC(=O)Nc1ccc2c(c1)C[C@@]1(C2)C(=O)Nc2ncccc21)[C@H]1CCCNC1
(II) O=C(CN(C(=O)N1CCCC1)[C@H]1CCCNC1)Nc1ccc2c(c1)C[C@@]1(C2)C(=O)Nc2ncccc21
(III) CC(C)(C)C(=O)N(CC(=O)Nc1ccc2c(c1)CC1(C2)C(=O)Nc2ncccc21)C1CCCCNC1 (stereo not shown)
Sort the compounds on IC50; start with the lowest figure. Thanks in advance for listing the labels in the requested order. III, II, I
(III: 129 nM, II: 245 nM, I: 8320 nM)

(a) CNC(=O)N1CCC(C)(C(=O)N(CC(=O)Nc2ccc3c(c2)C[C@@]2(C3)C(=O)Nc3ncccc32)[C@H]2CCCNC2)CC1
(b) CC1(C(=O)N(CC(=O)Nc2ccc3c(c2)C[C@@]2(C3)C(=O)Nc3ncccc32)[C@H]2CCCNC2)CCN(C(=O)c2ccccn2)CC1
(c) CC(C)(C)C(=O)N(CC(=O)Nc1ccc2c(c1)C[C@@]1(C2)C(=O)Nc2ncccc21)C1CC2CNC1C2 (stereo partly shown)
Sort the compounds on IC50; start with the lowest figure. Thanks in advance for listing the labels in the requested order. b, a, c
(b: 18.6 nM, a: 56.2 nM, c: 3020 nM)
